Source listed as the supplement of paper PMC9170038.

# Tested on: MS2 coat protein
# run-description: apparent KD of MS2 coat protein; designed switch direction (-1 OFF switch, 1 ON switch): 1; higher = weaker reporter binding
# condition-context: input ligand: none
apparent KD of MS2 coat protein values, listed per item
Report only the number, with the unit nM understood.

AAACGGCCCAACGAAGGGCCACAUGAGGAUCACCCAUGUACAUAGGAUAUCACGCCAACAAAGCGUGAGAAGGGUGAUUAAAAC [Lezaer] (Eterna round: R96, puzzle: Same State NG 3) : 163
AAGAAACAUGAGGAUCACCCAUGUCGAGAGAGACGAGGAUAUCUGAAUCGAUUAGAUUACGGAGAAGGCGUGAAAA [Same State 1.2 (Same State of Confusion2 - minimal change )] (Eterna round: R96, puzzle: Same State 1) : 27
GAGAGAGGGCGAGGAUAUUCGGUGAUAAUGAUGGAAGAAGGCGCUGACAUGAGGAUCACCCAUGUGGGAAUAAUCCAGAGAGAG [Parity 15 - Jieux - Same State NG 1] (Eterna round: R96, puzzle: Same State NG 1) : 237

Memo: UGUUAGUAGUGAGGAUAUACAUACACCUUACAUGAGGAUCACCCAUGUUUUAAUAUUGAUAGUUAGUAGAAGGCACAUGAUUAU [JR_SSNG2_Sub043] (Eterna round: R96, puzzle: Same State NG 2) , reported apparent KD of MS2 coat protein: 45.7

---

# System: K4 kissing-loop RNA reporter;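 also: bound reporter read as fluorescence of individual clusters on recovered sequencing chips by microscopy, with normalized cluster intensities fitted with a binding model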
# run-description: apparent KD of K4 kissing-loop reporter; higher = weaker reporter binding
# condition-context: Eterna round: R107; input ligand: arginine 13.2 mM
observation-type: apparent KD of K4 kissing-loop reporter
State the value with its unit after it.

Example cases with answers are listed next.
GGCGUCAAACCAGAACUAGUGAUGUUGGUUCGAGGACCGGUACGGCCGCCACUCGAUCUCUUGGUCCAUCGCGGAAGGGCAGCGG [theeternabot_exclusion_KL_Trp_A_29] : 369 nM
CCUAUCUCAUACGAUACCAGUGAUUAACCAGUGAUGUUGGAAUAACCAAGGAAUAUUUUUCACCCUUGGCAGCGUAUGGGAUAGG [Ex Theophylline B K4 26] : 38 nM
AGAGAGGUGUUUUUUUGAUGUGAGUAAUGGCGAGGACCGGUACGGCCGCCACUCGGGUGAUGUUAGUGAUGUUGAUGUAGUGAUG [p'pmullin] : 66.6 nM

Assay K4 kissing-loop RNA reporter, sample GUUCGAUUCUGAGUGAUGUUGAGAAUUGAGAAGGAUAUCCAGAAAAGGAGAAGGUCUACGUCAUGCGCCUCGAUUUGCUAGCUGC [theeternabot_exclusion_KL_FMN_A_50] , apparent KD of K4 kissing-loop reporter read: 567 nM

Assay K4 kissing-loop RNA reporter, sample GGCCGCAAGGCGAGCGCUCCCACUCCGGAAGGAGCGCCCGCAAGGGCAGGUAGGUCGCCGGAGUGAUGUUCCGGUGGAGGGCUCG [#2 Exclusion - Arginine A Attempt #16 (Inspired by Omei)] , apparent KD of K4 kissing-loop reporter read: 271 nM

---

# System: MS2 coat protein
# run-description: apparent KD of MS2 coat protein; higher = weaker reporter binding
# condition-context: Eterna round: R107; input ligand: arginine 13.2 mM
apparent KD of MS2 coat protein values, listed per item
Report only the number, with the unit nM understood.

Example cases with answers are listed next.
CAGGUGGACUGAAGGAGCGAGUCAGGGACUUACAUGAGGAUCACCCAUGUCACGGUCGUCACUCAGGUAGGUCGCAGUUCGCCUC [Diinan] : 113
AACAUGAGGAUCACCCAUGUAUUGGGUGAUACCAGCCUGAAUAAUGGCCCUUGGCAGCACCGCGCUAACUUUAUGUCUGCGAAAC [Erterean] : 87.3
UUGGCACGGACGGCCGCCACUCUUUCACAUGAGGAUCACCCAUGUUAUCUAGUCCUCAGCAGAAAGAGGACCGGGUCGGAGUUGG [theeternabot_exclusion_MS2_Trp_B_13] : 75.1
UACUUGCUGACGGCCGCCACUAGAACAUGAGGAUCACCCAUGUACCCGGUCCUAAUCCUCAUGACUAGGACCGGGUCAGCAAGAU [(Trp1)-(Ms2)-(T)'-(M)'-(Trp2)_Design2] : 26.4
CGUGGUGGGACGGAUACCAGCCACCGCGGCAACGCAACAUGAGGAUCACCCAUGUUGGGUGGCCCUUGGCAGCUGUCCUGCGACG [#1 Same State - Theophylline B Attempt #27 (HarryS)] : 11.5
AAUAAUAAGGCGGCCGCCACUAAACAUGAGGAUCACCCAUGUCUCGAGGGCUUGCGUUGGGAAAGUAGGACCGGGCCAAUAAUAA [Exclusion - Tryptophan B (Freestyle 7)] : 10.2
ACGUAAUGCAGAAGGAGCGUCUUAUGUAUACAUGAGGAUCACCCAUGUAAUAUGUGGUUGAGACAGGUAGGUCGCUGAAGUACGA [JR_SSArginiB_Sub009] : 46.9
ACAUGAGGAUCACCCAUGUACAUAAGGGAAGGAGCGCGGUGGAACGCAGGUAGGUCGCCCAUAAUAACAAUAAAUAAAUUCAUGU [#04 Same State - Arginine A] : 14.7

Memo: AAGAUACUCUGAAGGAGCGGCAUAAAACAUGAGGAUCACCCAUGUGCGCGGGUGUAAUUAUGCCAGGUAGGUCGCAGAGUAUUUA [#03 Same State - Arginine B] , reported apparent KD of MS2 coat protein: 168

Memo: AUGGAGACCUCGGCCGCCACUCUCCAUGAGGAUCUCCCAUGUAACAUGAGGAUCACCCAUGUGCUGAGGACCGGGAGGUCCUGAA [Same State Tryptophan B GF 18] , reported apparent KD of MS2 coat protein: 9.2

Memo: CAUACUUUAGUAUGUUAUGUGGACAGUGAUACCAGAUACGAAAGUAUCCCUUGGCAGCACAACAUGAGGAUCACCCAUGUAUUUU [Theophylline A 4] , reported apparent KD of MS2 coat protein: 25.8

Memo: AGCCACUCGAACAUGGGUGACGAGUGGCAACGAGGACCGGUACGGCCGCCACUCGAAUAAACAUGAGGAUCACCCAUGUACAAAU [T''-M'-T'-T-MS2 - Design 9] , reported apparent KD of MS2 coat protein: 33.1
